- assay.target: Dihydrofolate reductase (Pneumocystis jirovecii, UniProt Q9UUP5)
- Sequence (Q9UUP5 whole entry): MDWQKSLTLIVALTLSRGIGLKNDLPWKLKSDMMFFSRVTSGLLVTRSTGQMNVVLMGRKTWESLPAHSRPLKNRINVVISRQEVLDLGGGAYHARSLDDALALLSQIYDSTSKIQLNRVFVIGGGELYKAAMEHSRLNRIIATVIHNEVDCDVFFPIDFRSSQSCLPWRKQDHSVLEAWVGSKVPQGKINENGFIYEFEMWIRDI
reported.metric: IC50 (nM)

1. COc1ccc(Sc2c(C)c3c(N)nc(N)nc3n2C)cc1OC [US11111252, Compound 9]; 234
2. COc1ccc(Sc2sc3nc(N)nc(N)c3c2C)cc1OC [US11111252, Compound 1]; 260
